# target-under-test: human VR1 receptors (Homo sapiens)
# Construct: host or cells: cells highly expressing human VR1; cell type not specified
# measurement-description: Human VR1 antagonist assay (Ca2+ imaging)
# Assay type: cell-based
# test-conditions: cells expressing human VR1, fura-2 Ca2+ imaging, FDSS 6000; capsaicin (300 nM) or acid (pH5.8) stimulation, table does not say which
outcome-measure: IC50 (nM)

a: Cc1cc([C@@H](C)NC(=O)C2CC2c2cc(F)c(C(C)(C)C(F)(F)F)c(F)c2)ccc1NS(C)(=O)=O (single isomer, unassigned)
b: C[C@@H](NC(=O)C1CC1c1ccc(C(C)(C)C(F)(F)F)cc1)c1ccc(NS(C)(=O)=O)c(F)c1 (stereo partly drawn)
c: COC1(c2ccc(C(F)(F)F)cc2)CC1C(=O)N[C@H](C)c1ccc(NS(C)(=O)=O)c(C)c1 (stereo partly drawn)
-- ask Rank ascending by IC50. Please list each label once, in the requested order.
-- reply c, a, b
(c: 6.66 nM, a: 138 nM, b: 282 nM)

---

# target-under-test: human VR1 receptors (Homo sapiens, UniProt Q8NER1)
# Construct: cell type not specified
# Sequence (Q8NER1 whole entry): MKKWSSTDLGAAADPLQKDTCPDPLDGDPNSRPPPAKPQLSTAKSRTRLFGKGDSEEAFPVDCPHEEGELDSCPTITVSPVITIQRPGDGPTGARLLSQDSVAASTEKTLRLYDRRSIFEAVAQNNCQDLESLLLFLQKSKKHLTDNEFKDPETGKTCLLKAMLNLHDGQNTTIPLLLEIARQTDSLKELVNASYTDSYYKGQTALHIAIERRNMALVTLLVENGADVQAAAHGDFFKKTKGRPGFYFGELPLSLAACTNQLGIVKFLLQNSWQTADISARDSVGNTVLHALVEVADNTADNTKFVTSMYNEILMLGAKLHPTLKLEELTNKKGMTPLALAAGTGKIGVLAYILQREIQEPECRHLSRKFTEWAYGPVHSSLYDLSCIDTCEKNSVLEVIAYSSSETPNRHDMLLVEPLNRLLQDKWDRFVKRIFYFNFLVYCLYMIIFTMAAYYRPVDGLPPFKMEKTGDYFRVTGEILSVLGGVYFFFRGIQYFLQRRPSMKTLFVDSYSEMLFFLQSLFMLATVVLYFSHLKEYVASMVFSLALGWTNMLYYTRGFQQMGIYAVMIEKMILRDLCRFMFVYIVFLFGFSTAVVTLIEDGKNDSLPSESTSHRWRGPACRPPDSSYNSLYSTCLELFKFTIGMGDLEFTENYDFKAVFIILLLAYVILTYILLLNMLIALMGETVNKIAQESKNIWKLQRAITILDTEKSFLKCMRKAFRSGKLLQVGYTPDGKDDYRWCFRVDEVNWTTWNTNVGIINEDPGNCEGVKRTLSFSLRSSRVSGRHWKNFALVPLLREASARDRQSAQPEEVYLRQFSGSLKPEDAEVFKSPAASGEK
# measurement-description: Human VR1 antagonist assay (Ca2+ imaging)
# test-conditions: cells expressing human VR1, fura-2 Ca2+ imaging, FDSS 6000; capsaicin (300 nM) or acid (pH5.8) stimulation, table does not say which
outcome-measure: IC50 (nM)

The examples below pair each entry with its known result.
1. COC1(c2ccc(C(C)(C)C)cc2)CC1C(=O)N[C@H](C)c1ccc(NS(C)(=O)=O)c(C)c1 (stereo partly shown) | 4.62
2. Cc1cc([C@@H](C)NC(=O)C2CC2(C)c2ccc(S(=O)(=O)C(F)(F)F)cc2)ccc1NS(C)(=O)=O (stereo partly shown) | 78.3
3. C[C@@H](NC(=O)C1CC1(C)c1ccc(S(=O)(=O)C(F)(F)F)cc1)c1ccc(NS(C)(=O)=O)c(CO)c1 (stereo partly shown) | 212
4. CC[C@@H](NC(=O)[C@H]1C[C@]1(C)c1cc(F)c(C(C)(C)C)c(F)c1)c1ccc(NS(C)(=O)=O)cc1 | 86.3
5. Cc1cc([C@@H](C)NC(=O)C2CC2(CO)c2ccc(C(C)(C)C)cc2)ccc1NS(C)(=O)=O (stereo partly shown) | 263

I: C[C@@H](NC(=O)[C@H]1C[C@]1(C)c1ccc(C(F)(F)F)cc1)c1ccc(NS(C)(=O)=O)cc1
II: Cc1cc([C@@H](C)NC(=O)C2CC2c2ccc(C(C)(C)C)nc2)ccc1NS(C)(=O)=O (stereo partly shown)
-- ask Of I and II , whose reported IC50 is the larger number? Bench note: the answer is the label of the chosen record.
-- reply II
(II: 125 nM, I: 20.1 nM)

---

# measurement-description: Half-life in Human Liver Microsomes (HLM)
# test-conditions: human, human liver microsomes (HL101), pH 7.4
outcome-measure: half-life at 1 μM (min)

The following molecules have reported results that may help.
1. Cc1cc([C@@H](C)NC(=O)C2CC2(C)c2ccc(C(F)(F)F)nc2)ccc1NS(C)(=O)=O (some centres unmarked) [Example 12] | 83
2. Cc1cc([C@@H](C)NC(=O)C2CC2c2ccc(C(C)(C)C)c(F)c2)ccc1NS(C)(=O)=O (some centres unmarked) | 32
3. Cc1cc([C@@H](C)NC(=O)C2CC2c2cc(F)c(C(C)(C)C(F)(F)F)c(F)c2)ccc1NS(C)(=O)=O (single isomer, unassigned) | 32
4. C[C@@H](NC(=O)C1CC1c1ccc(C(C)(C)C)cc1)c1ccc(NS(C)(=O)=O)c(F)c1 (some centres unmarked) | 37
5. C[C@@H](NC(=O)[C@H]1C[C@@H]1c1ccc(C(F)(F)F)nc1N1CCCC1)c1ccc(NS(C)(=O)=O)c(CO)c1 | 11
6. C[C@@H](NC(=O)[C@H]1C[C@]1(C)c1cc(F)c(C(C)(C)C)c(F)c1)c1ccc(NS(C)(=O)=O)cc1 | 41
7. Cc1cc(CNC(=O)C2CC2c2ccc(C(C)(C)C(F)(F)F)cc2)ccc1NS(C)(=O)=O (centres unmarked) | 18
8. C[C@@H](NC(=O)[C@H]1C[C@@H]1c1ccc(C(C)(C)C(F)(F)F)cc1)c1ccc(NS(C)(=O)=O)c(CO)c1 | 21
9. Cc1cc([C@@H](C)NC(=O)C2CC2(C)c2ccc(SC(F)(F)F)cc2)ccc1NS(C)(=O)=O (some centres unmarked) | 23

I: CCc1cc([C@@H](C)NC(=O)C2CC2(C)c2cc(F)c(C(C)(C)C(F)(F)F)c(F)c2)ccc1NS(C)(=O)=O (single isomer, unassigned)
II: Cc1cc([C@@H](C)NC(=O)C2CC2(C)c2ccc(C(C)(C)C(F)(F)F)cc2)ccc1NS(C)(=O)=O (some centres unmarked)
III: COC1(c2ccc(C(C)(C)C)cc2)CC1C(=O)N[C@H](C)c1ccc(NS(C)(=O)=O)c(C)c1 (some centres unmarked)
-- ask Put the items in sequence by half-life at 1 μM, from largest down. In your reply, arrange the labels in the requested order.
-- reply I, II, III

---

# measurement-description: Half-life in Human Liver Microsomes (HLM)
# test-conditions: human, human liver microsomes (HL101), pH 7.4
outcome-measure: half-life at 1 μM (h)

1. C[C@@H](NC(=O)C1CC1c1ccc(C(C)(C)C(F)(F)F)cc1)c1ccc(NS(C)(=O)=O)c(F)c1 (stereo partly shown) | 1.98

I: C[C@@H](NC(=O)C1CC1(C)c1ccc(S(=O)(=O)C(F)(F)F)cc1)c1ccc(NS(C)(=O)=O)c(CO)c1 (stereo partly shown)
II: Cc1nc([C@@H](C)NC(=O)C2CC2(C)c2ccc(C(F)(F)F)cc2)ccc1NS(C)(=O)=O (stereo partly shown)
III: CCc1cc([C@@H](C)NC(=O)[C@H]2C[C@]2(C)c2ccc(C(F)(F)F)cc2)ccc1NS(C)(=O)=O
-- ask Which order do these items take when sorted by rising half-life at 1 μM? List them. Your answer should be the labels, listed in the requested order.
-- reply III, I, II

---

# target-under-test: human VR1 receptors (Homo sapiens, UniProt Q8NER1)
# Construct: cell type not specified
# measurement-description: Human VR1 antagonist assay (Ca2+ imaging)
# test-conditions: cells expressing human VR1, fura-2 Ca2+ imaging, FDSS 6000; capsaicin (300 nM) or acid (pH5.8) stimulation, table does not say which
pIC50: −log10 of the molar value.
outcome-measure: pIC50

The following compounds have reported results that may help.
1) Cc1cc([C@H](C)NC(=O)[C@H]2C[C@]2(C)c2ccc(C(F)(F)F)cc2)ccc1NS(C)(=O)=O (single isomer, unassigned) [Example 82] | 7.21
2) C[C@@H](NC(=O)[C@H]1C[C@@H]1c1cc(F)c(C(C)(C)C)c(F)c1)c1ccc(NS(C)(=O)=O)cc1 [Example 38] | 7.15
3) Cc1cc([C@@H](C)NC(=O)[C@H]2C[C@@H]2c2ccc(C(F)(F)F)nc2N(C)C)c(F)cc1NS(C)(=O)=O [Example 79] | 7.69
4) C[C@@H](NC(=O)[C@H]1C[C@@H]1c1ccc(C(C)(C)C(F)(F)F)cc1)c1ccc(NS(C)(=O)=O)c(CO)c1 [Example 48] | 6.69

P: C[C@@H](NC(=O)[C@H]1C[C@]1(C)c1cc(F)c(C(C)(C)C)c(F)c1)c1ccc(NS(C)(=O)=O)c(F)c1 [Example 45]
Q: CCc1cc([C@@H](C)NC(=O)[C@H]2C[C@@H]2c2ccc(C(F)(F)F)cc2)ccc1NS(C)(=O)=O [Example 33]
-- ask Which entry has a larger number for pIC50, P or Q ? Return value: the label identifying the chosen record.
-- reply P
(P: 8.23, Q: 7.25)

---

# measurement-description: Half-life in Human Liver Microsomes (HLM)
# test-conditions: human, human liver microsomes (HL101), pH 7.4
outcome-measure: half-life at 1 μM (min)

Below, each entry is followed by its recorded half-life at 1 μM result.
1. Cc1cc([C@@H](C)NC(=O)[C@H]2C[C@]2(C)c2cc(F)c(C(C)(C)C)c(F)c2)ccc1NS(C)(=O)=O | 29
2. Cc1cc([C@@H](C)NC(=O)C2CC2c2ccc(C(C)(C)C)cc2CO)ccc1NS(C)(=O)=O (stereo partly shown) | 18
3. Cc1cc([C@@H](C)NC(=O)[C@H]2C[C@]2(C)c2ccc(C(F)(F)F)nc2N2CCOCC2)ccc1NS(C)(=O)=O | 3

I: C[C@@H](NC(=O)C1CC1(C)c1ccc(C(F)(F)F)c(F)c1)c1ccc(NS(C)(=O)=O)c(F)c1 (stereo partly shown)
II: Cc1cc([C@@H](C)NC(=O)C2CC2(CO)c2ccc(C(C)(C)C)cc2)ccc1NS(C)(=O)=O (stereo partly shown)
-- ask Problem: Given the entries I and II , determine which has the lower reported half-life at 1 μM. Please reply using the label of the selected record.
-- reply II

Value source: patent US7915448B2
